The origin of these recorded values is the supplement of paper PMC9170038.

Below: a set of entries, each annotated with reported apparent KD of MS2 coat protein.
Test system: MS2 coat protein
procedure details: apparent KD of MS2 coat protein; designed switch direction (-1 OFF switch, 1 ON switch): -1; higher = weaker reporter binding
condition info: input ligand: microRNA oligo, concentration not stated
recorded metric: apparent KD of MS2 coat protein

CACCUGAAGAGAGGAUAUGAUACAUGAGGAUCACCCAUGUAAUAAAUGAGAAUUUCGAAUGUAAUUCAGAAGGCUCAAUAAGGC [Ostricism 94 - Jieux - Exclusion NG 2] (Eterna round: R96, puzzle: Exclusion NG 2) : 50.8 nM
GCACGAAGUGUAGGAUAUCUGUGCGAUUAGCUCAGAGAAGGACACAUGAGGAUCACCCAUGUGUUCCACGGAAACGAAACGUGC [Eli exng1 - 053] (Eterna round: R96, puzzle: Exclusion NG 1) : 8.47 nM
GCAGCAUAGAUAACAGUCUGAUACAUGAGGAUCACCCAUGUGCAGGAUAUGGUCUGGAUUACAGGCCAGAAGGGUACAAGCUGC [Eli exng3 - 015] (Eterna round: R96, puzzle: Exclusion NG 3) : 7.84 nM
UCUUAUUGCAAGGAUAUGCUUUUUAUUUCUUUUGCAGAAGGUGCAACAUGAGGAUCACCCAUGUUUCCGGGCAU [JR_E6_Sub035] (Eterna round: R96, puzzle: Exclusion 6) : 16.4 nM
CUUCUGUGAGGAUAUGUUAGUUCCCAGCAAAUCGCUGGGAGACAGAAGGCACAUGAGGAUCACCCAUGUGGGCG [Vexeanra] (Eterna round: R96, puzzle: Exclusion 4) : 49.8 nM
UUGAUUGGUGUAGGAUAUGUAUGAGGAUCACCCAUUAAUAAAUUUUAACCACGAGGAUCACCCGUGUAGAAGGACAUUGGUUAU [pwkr exNG2 2xF5 1xFMN.21] (Eterna round: R96, puzzle: Exclusion NG 2) : 37.8 nM
UUUUAAUAUGAAGGAUAUACUUAACAUGAGGAUCACCCAUGUGGUGUUGUGAGUGAGUGAGUUUAGUAGAAGGUCAAUGAUUUU [JMF's solution 69] (Eterna round: R96, puzzle: Exclusion NG 2) : 381 nM
CAUUAUUAUCGAGGAUAUCGUAUUGAGAUACUAUGAGAAGGCGGGAUAAACAUGAGGAUCACCCAUGUGAGCCUGAUGCUUGUG [Ex NG1 #37] (Eterna round: R96, puzzle: Exclusion NG 1) : 14.3 nM
ACAUGAGGAUCACCCAUGUUUUUCGGGUACUCUUUUUACAGCAAGGAUAUGCAUGUUUUUUUUACGCAGAAGGUGCUUUACGUC [JR_ExcNG3_Sub067] (Eterna round: R96, puzzle: Exclusion NG 3) : 77.7 nM
UAAGAUUACCGAGGAUAUGCUGGUUUCUAUUAAGCAGAAGGCGGACUCAACAUGAGGAUCACCCAUGUAAGAAGGGUAUUAGAU [Ex NG1 #9] (Eterna round: R96, puzzle: Exclusion NG 1) : 82.1 nM
AGCUGUGGCCGAGGAUAUCCAACUUCAAAUACCGACGUAUAGUCGGACAUGAGGAUCACCCAUGUGGAGAAGGCGGUCUCAGCA [Eli eng2 - 038] (Eterna round: R96, puzzle: Exclusion NG 2) : 12.5 nM
CUGCUCCGUGUAGGAUAUGCAUACAACCAAUAUGCAGAAGGACAUGAGGAUCACCCAUGUAUGUUAUUAUCACGUGAAGCGUCC [Design 20] (Eterna round: R96, puzzle: Exclusion NG 1) : 16.8 nM
CUAUAGUAUGUAGGAUAUCGGUCAGUUUCUGAUCGAGAAGGACAUGAGGAUCACCCAUGUAAGGCUACCGGUUUCUGGUGGCCG [JL ENG1 3.54] (Eterna round: R96, puzzle: Exclusion NG 1) : 18.5 nM
UAAAAUUCGCGAGGAUAUGCGACCUAAUGGGAGGAUUGUCACAUGAGGAUCACCCAUGUCAGUCAGCAGAAGGCGCACCUGGUU [Anedmaon] (Eterna round: R96, puzzle: Exclusion NG 2) : 116 nM
CACGGACGAUAAGGAUAUGUUAUAGCUCAAACAGCAGAAGGUGUUAAACCACCGUCACAUGAGGAUCACCCAUGUGUGACAGUU [Eternabot solution 34] (Eterna round: R96, puzzle: Exclusion NG 1) : 30.7 nM
GUACUGAAGCUUUGCUUUAGUCGUACAUGAGGAUCACCCAUGUAGGAUAUGGUAGGCUUUGCUUACCAGAAGGACAGAGUGAUC [JL EXNG3 1.25] (Eterna round: R96, puzzle: Exclusion NG 3) : 83.7 nM
AUAAUUAAUCGAGGAUAUCAGCACGUUUAGUGCUGAGAAGGCGACAUGAGGAUCACCCAUGUGAUCAAUUAAUAUUAAUAUUAU [ENG1/11-C2] (Eterna round: R96, puzzle: Exclusion NG 1) : 230 nM
GGAUUCCAGUGAGGAUAUCCAAAUAAAAGCCAUGGAGAAGGCACAUGAGGAUCACCCAUGUAGGGCAAUAGCAGCGACCACUGC [Raqube] (Eterna round: R96, puzzle: Exclusion NG 1) : 27.6 nM
